tgt: T1, human Claudin18.1 (CLDN18.1) (human, UniProt P56856 1-261)
T1 construct: whole, on cells; also called human Claudine18.1
assay_protocol: FACS on CHOK1-18.1 cells;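 note: antibody binding to cells detected with a fluorescently labelled secondary antibody, read out as median fluorescence intensity (MFI) by flow cytometry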

| binder | binding result |
| --- | --- |
| Ab11 (antibody, V domains shown, mouse monoclonal (hybridoma)) VH: EVMLVESGGDLVKPGGSLKLSCAASGFTFSRYTMSWVRQTPEKRLEWVATVSVGSGNTYYLDSVKGRFTISRDNAKNTLFLQMNSLRSEDTALYYCTRLGQTQRNAVDYWGQGTSVTVSS VL: DIVMTQSPSFLSVSAGEKVTMSCKSSQSLFNGGNQKNYLAWYQQKPGQPPKLLIYGASTRDSGVPDRFTGSGSGTDFTLTISNVQAEDLAIYFCQNDHSFPLTFGAGTKLELK | no binding |
| Ab23 (antibody, V domains shown, mouse monoclonal (hybridoma)) VH: EVMLVESGGGLVKPGGSLKLSCVASGFTFSSYTMSWVRQTPEKRLEWVATLSVVGGNTYYVDSVKGRFTISRDKAKNTLYLQMSSLRSEDTALYYCARLGQTQRNAMDYWGQGTSVTVSS VL: DIVMTQSPSSLSVSAGEKVTMSCKSSQSLLNSGNQKNYLAWYQQKPGQPPKLLIYGASTRESGVPDRFTGSGSGTDFTLTISSVQAEDLAVYYCQNDYSYPLTFGAGTKLEL | no binding |
| Ab28 (antibody, V domains shown, mouse monoclonal (hybridoma)) VH: QVQLKESGPGLVAPSQSLSITCTVSGFSLTSHGVHWVRQPPGKGLEWLGVIWAGGSINFNSALMSRLSISKDNSKNQVFLKMNSLQSDDTAMYYCARDYYYGIGLDYWGQGTTLTVS VL: DIVMTQSPSSLSVSAGEKVTMSCKSSQSLLNSGNQKNYLAWYQQKPGQPPKLLIYGASTRESGVPDRFTGSGSGTDFTLTISSVQAEDLAVYYCQNDYYYPFTFGSGTKLEIK | no binding |
